# Test system: everted gut sacs (jejunum)
# Test protocol: Absorption experiment with everted gut sacs
# Study conditions: intestinal bacterial transformed AEOF; first of three lines per compound (lowest concentration; 10, 20, 30 mg/mL)
# maps each entry to its After transported with everted gut sacs
Your answer is read as µg/mL, so omit the unit and give the number.

Line notation | Tested system | Reported endpoint | Numeric readout
O=c1c(O)c(-c2ccc(O)c(O)c2)oc2cc(O)cc(O)c12 | everted gut sacs (jejunum) | After transported with everted gut sacs | 0.00

# input I'd like to know its After transported with everted gut sacs. The compound in question is "O=c1cc(-c2ccc(O)c(O)c2)oc2c([C@@H]3O[C@H](CO)[C@@H](O)[C@H](O)[C@H]3O)c(O)cc(O)c12"
# output 0.32

# input Repeat with "O=C1CC[C@H]2c3cc(O)c(O)cc3CCN12"
# output 4.33

# input Repeat with "O=c1c(O[C@@H]2O[C@H](CO)[C@@H](O)[C@H](O)[C@H]2O)c(-c2ccc(O)c(O)c2)oc2cc(O)cc(O)c12"
# output 0.00

====

# Test protocol: Transport experiment with Caco-2 cell monolayers
# Study conditions: human, Caco-2, Papp, Caco-2 cell monolayers, extract 20 mg/mL, AP→BL
# maps each entry to its Papp at 180 min, 20 mg/mL

Study these solved cases before continuing.
Compound | Papp at 180 min, 20 mg/mL
O=c1cc(-c2ccc(O)c(O)c2)oc2c([C@@H]3O[C@H](CO)[C@@H](O)[C@H](O)[C@H]3O)c(O)cc(O)c12 [orientin] | 13.5 ×10⁻⁶ cm/s
O=C1CC[C@H]2c3cc(O)c(O)cc3CCN12 [trolline] | 127 ×10⁻⁶ cm/s
O=c1cc(-c2ccc(O)cc2)oc2c([C@@H]3O[C@H](CO)[C@@H](O)[C@H](O)[C@H]3O)c(O)cc(O)c12 [vitexin] | 13.6 ×10⁻⁶ cm/s
COc1ccc(C(=O)O)cc1OC [veratric acid] | 105 ×10⁻⁶ cm/s
O=c1cc(-c2ccc(O)c(O)c2)oc2c(C3OC(CO)C(O)C(O)C3OC3OC(CO)C(O)C(O)C3O)c(O)cc(O)c12 [2″-O-β-L-galactopyranosylorientin] | 19 ×10⁻⁶ cm/s

# input I'd like to know its Papp at 180 min, 20 mg/mL. The compound in question is COc1cc(C(=O)O)cc(CC=C(C)C)c1O [proglobeflowery acid]
# output 123 ×10⁻⁶ cm/s

====

# System: everted gut sacs (jejunum)
# Test protocol: Absorption experiment with everted gut sacs
# Study conditions: intestinal bacterial transformed AEOF; second of three lines per compound (middle concentration, not given)
# After transported with everted gut sacs >= 2 µg/mL gives t, anything below gives f

Solved entries (count: 4):
Molecule | Tested system | Cat
O=c1cc(-c2ccc(O)c(O)c2)oc2c(C3OC(CO)C(O)C(O)C3OC3OC(CO)C(O)C(O)C3O)c(O)cc(O)c12 (centres unmarked) | everted gut sacs (jejunum) | f
O=C1CC[C@H]2c3cc(O)c(O)cc3CCN12 | everted gut sacs (jejunum) | t
O=c1cc(-c2ccc(O)cc2)oc2c([C@@H]3O[C@H](CO)[C@@H](O)[C@H](O)[C@H]3O)c(O)cc(O)c12 | everted gut sacs (jejunum) | f
COc1cc(C(=O)O)cc(CC=C(C)C)c1O | everted gut sacs (jejunum) | t

# input Form field: After transported with everted gut sacs at least 2 µg/mL? Entry: "O=c1cc(-c2ccc(O)c(O)c2)oc2c([C@@H]3O[C@H](CO)[C@@H](O)[C@H](O)[C@H]3O)c(O)cc(O)c12"
# output f
